- systemUnderTest: furin, P09958;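 note: purified furin at 1:10 enzyme:substrate in 50 mM HEPES pH 7.5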
- Sequence (P09958 whole entry): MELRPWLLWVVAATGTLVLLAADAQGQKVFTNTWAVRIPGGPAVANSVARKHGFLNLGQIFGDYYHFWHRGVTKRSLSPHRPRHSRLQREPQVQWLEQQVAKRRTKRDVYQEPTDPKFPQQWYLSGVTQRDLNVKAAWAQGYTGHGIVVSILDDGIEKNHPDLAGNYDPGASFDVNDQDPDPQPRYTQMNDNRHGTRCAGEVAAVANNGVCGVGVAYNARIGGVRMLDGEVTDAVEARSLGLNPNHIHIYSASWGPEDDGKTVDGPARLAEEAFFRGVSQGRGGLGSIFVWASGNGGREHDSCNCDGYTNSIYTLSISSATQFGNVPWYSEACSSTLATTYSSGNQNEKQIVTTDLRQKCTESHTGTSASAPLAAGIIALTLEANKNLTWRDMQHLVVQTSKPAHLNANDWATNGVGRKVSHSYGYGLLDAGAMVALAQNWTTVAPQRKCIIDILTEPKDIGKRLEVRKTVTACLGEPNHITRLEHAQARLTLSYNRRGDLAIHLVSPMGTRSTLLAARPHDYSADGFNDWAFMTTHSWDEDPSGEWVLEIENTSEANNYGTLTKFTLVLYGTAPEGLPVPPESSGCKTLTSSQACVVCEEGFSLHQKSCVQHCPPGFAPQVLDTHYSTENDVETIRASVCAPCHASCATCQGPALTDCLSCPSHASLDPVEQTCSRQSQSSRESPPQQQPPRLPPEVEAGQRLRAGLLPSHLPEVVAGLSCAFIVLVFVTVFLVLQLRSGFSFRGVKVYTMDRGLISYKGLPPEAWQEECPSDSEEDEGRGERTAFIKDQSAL
- testDetails: furin cleavage Z-score vs untreated control; higher = more cleavage, active = 3.5 or more, inactive = 1 or less, 8 variable residues between constant flanks
- testParameters: 15 min
The list shows a part of the results. No count for the full screen is at hand.
recordedMetric: furin cleavage Z-score

Known furin cleavage Z-score results, listed for orientation:
CAEEECSQHLAGNASASA [HC1672] : 1.31
CARWRRSKRAAGNASASA [FS-959] : 11.6 (active)

Hey, can you go through the list below and give me furin cleavage Z-score for every item?
1. CASSLTVTQLAGNASASA [HC1135]
2. CAHLVPVLRGAGNASASA [FS-595]
3. CAGSPRSKRAAGNASASA [FS-788]
4. CARSTRDVQAAGNASASA [FS-3212]
5. CAIPPLNVRGAGNASASA [HC591]
6. CARQKRDWVIAGNASASA [FS-2586]
7. CARQKRDTTHAGNASASA [FS-2750]

Ans.
1: -0.51 (inactive); 2: -0.535 (inactive); 3: 9.92 (active); 4: 7.38 (active); 5: -0.0771 (inactive); 6: 4.34 (active); 7: 13.1 (active)

Items follow; give furin cleavage Z-score for each.
1. CACVRRSPCAAGNASASA [FS-2118]
2. CAHVVTSTWVAGNASASA [HC2155]
3. CAYREVPCHRAGNASASA [HC2429]

Ans.
["-1.71 (inactive)", "0.00684 (inactive)", "-0.258 (inactive)"]
